All figures here come from PubChem BioAssay (NCI).

# Tested on: HCT-15 colon
# assay info: NCI tumour cell line growth inhibition, 48 h
Listed below: TGI values for each entry.

>  <compound>
COc1ccc(-c2nn(-c3cccc(Cl)c3)cc2-c2cc(-c3ccccc3)nc(N)n2)cc1

>  <measured endpoint>
TGI

>  <observed value>
16.1 µM

$$$$
>  <compound>
O=C(NCCc1ccccc1)c1c(O)c2ccccc2[nH]c1=O

>  <measured endpoint>
TGI

>  <observed value>
> 100 µM

$$$$
>  <compound>
NNCCc1n[nH]c(=O)n1N

>  <measured endpoint>
TGI

>  <observed value>
> 100 µM

$$$$
>  <compound>
CS/C(=N\c1nccs1)NC(=O)c1cccc(Cl)c1

>  <measured endpoint>
TGI

>  <observed value>
> 100 µM

$$$$
>  <compound>
O=C(c1cccnc1)c1cc(-c2ccccn2)c(=O)n2ccccc12

>  <measured endpoint>
TGI

>  <observed value>
> 100 µM

$$$$
>  <compound>
OCC1OC(n2cnc3c(=S)nc[nH]c32)C(O)C1O (configuration not stated)

>  <measured endpoint>
TGI

>  <observed value>
> 2500 µM

$$$$

For the next question, use this compound.
QUERY: // lookup TGI | system=HCT-15 colon | key= CN(CCCN(C)CCc1ccc(Cl)c(Cl)c1)CCCN1CCCC1
RESULT: 7.22 µM

* * *

# System: HCT-15 colon
# assay info: NCI tumour cell line growth inhibition, 48 h
measured endpoint: TGI

>  <compound>
CC(=O)N(CN1C(=O)CCC1C(=O)O)c1cccc(O)c1 (stereo not drawn)

>  <TGI>
> 100 µM

$$$$
>  <compound>
Nc1nc(N)c(N=O)c(OCC2CCCCC2)n1

>  <TGI>
> 100 µM

$$$$

QUERY: Fill in the blank: the reported TGI of O=C(COc1cccc(/C=C2\COc3ccc(Cl)cc3C2=O)c1)c1ccc(Cl)cc1 is ____.
RESULT: 24.7 µM

* * *

# Test system: NCI-H522 lung
# assay info: NCI tumour cell line growth inhibition, 48 h
Reported TGI by item:

>  <compound>
C/C(=N\NC(=S)NC(C)(C)C)c1ccccn1

>  <TGI>
> 23.1 µM

$$$$

QUERY: Endpoint output: TGI of CC(C)(C#N)c1cc(C(=O)Nc2cc(Nc3ncccc3-c3ncnc4nc[nH]c34)ccc2F)cc(C(F)(F)F)c1 . Value?
RESULT: > 6.56 µM

QUERY: Entry N#Cc1cc([N+](=O)[O-])ccc1NC(=O)/C(=N/N)C(C(=O)c1ccc(Cl)c(Cl)c1)C1OC(=O)c2ccccc21 (stereo not given) please
RESULT: > 100 µM

QUERY: Entry to check: COc1cccc2nc3cc(C)c(C)cc3nc12
RESULT: > 100 µM

QUERY: Consider next the compound COc1cc(C)c(O)c(C(=O)O)c1 in the same way.
RESULT: > 100 µM

* * *

Reported TGI is given for each of the following molecules.
# Test system: SK-MEL-5 melanoma
# assay info: NCI tumour cell line growth inhibition, 48 h

Use these answered entries as a reference point.
>  <molecule>
C[n+]1cccc2ccc(OC(=O)c3ccccc3)cc21

>  <measured endpoint>
TGI

>  <observed value>
> 100 µM

$$$$
>  <molecule>
NC(CCC(=O)O)(CCC(=O)O)CCC(=O)O

>  <measured endpoint>
TGI

>  <observed value>
> 100 µM

$$$$
>  <molecule>
CC(C)C12C=CC(C)(CC1)n1c(=O)c3cc4ccccc4cc3c(=O)n12 (stereo unspecified)

>  <measured endpoint>
TGI

>  <observed value>
> 100 µM

$$$$
>  <molecule>
Cc1ccc(Nc2nc(NS(=O)(=O)c3cc(C(=O)Nc4ccc(Cl)cc4)c(Cl)cc3S)n[nH]2)cc1

>  <measured endpoint>
TGI

>  <observed value>
> 100 µM

$$$$
>  <molecule>
C/C(=N\NC(=S)NC(C)(C)C)c1ccccn1

>  <measured endpoint>
TGI

>  <observed value>
> 40 µM

$$$$

QUERY: Recorded TGI for O=C(O)CC1(CC(=O)O)Nc2ccccc2SC1=O , please?
RESULT: > 100 µM
